Target: Nav 1.7 (Homo sapiens (Human))
Sequence (Q15858 whole entry): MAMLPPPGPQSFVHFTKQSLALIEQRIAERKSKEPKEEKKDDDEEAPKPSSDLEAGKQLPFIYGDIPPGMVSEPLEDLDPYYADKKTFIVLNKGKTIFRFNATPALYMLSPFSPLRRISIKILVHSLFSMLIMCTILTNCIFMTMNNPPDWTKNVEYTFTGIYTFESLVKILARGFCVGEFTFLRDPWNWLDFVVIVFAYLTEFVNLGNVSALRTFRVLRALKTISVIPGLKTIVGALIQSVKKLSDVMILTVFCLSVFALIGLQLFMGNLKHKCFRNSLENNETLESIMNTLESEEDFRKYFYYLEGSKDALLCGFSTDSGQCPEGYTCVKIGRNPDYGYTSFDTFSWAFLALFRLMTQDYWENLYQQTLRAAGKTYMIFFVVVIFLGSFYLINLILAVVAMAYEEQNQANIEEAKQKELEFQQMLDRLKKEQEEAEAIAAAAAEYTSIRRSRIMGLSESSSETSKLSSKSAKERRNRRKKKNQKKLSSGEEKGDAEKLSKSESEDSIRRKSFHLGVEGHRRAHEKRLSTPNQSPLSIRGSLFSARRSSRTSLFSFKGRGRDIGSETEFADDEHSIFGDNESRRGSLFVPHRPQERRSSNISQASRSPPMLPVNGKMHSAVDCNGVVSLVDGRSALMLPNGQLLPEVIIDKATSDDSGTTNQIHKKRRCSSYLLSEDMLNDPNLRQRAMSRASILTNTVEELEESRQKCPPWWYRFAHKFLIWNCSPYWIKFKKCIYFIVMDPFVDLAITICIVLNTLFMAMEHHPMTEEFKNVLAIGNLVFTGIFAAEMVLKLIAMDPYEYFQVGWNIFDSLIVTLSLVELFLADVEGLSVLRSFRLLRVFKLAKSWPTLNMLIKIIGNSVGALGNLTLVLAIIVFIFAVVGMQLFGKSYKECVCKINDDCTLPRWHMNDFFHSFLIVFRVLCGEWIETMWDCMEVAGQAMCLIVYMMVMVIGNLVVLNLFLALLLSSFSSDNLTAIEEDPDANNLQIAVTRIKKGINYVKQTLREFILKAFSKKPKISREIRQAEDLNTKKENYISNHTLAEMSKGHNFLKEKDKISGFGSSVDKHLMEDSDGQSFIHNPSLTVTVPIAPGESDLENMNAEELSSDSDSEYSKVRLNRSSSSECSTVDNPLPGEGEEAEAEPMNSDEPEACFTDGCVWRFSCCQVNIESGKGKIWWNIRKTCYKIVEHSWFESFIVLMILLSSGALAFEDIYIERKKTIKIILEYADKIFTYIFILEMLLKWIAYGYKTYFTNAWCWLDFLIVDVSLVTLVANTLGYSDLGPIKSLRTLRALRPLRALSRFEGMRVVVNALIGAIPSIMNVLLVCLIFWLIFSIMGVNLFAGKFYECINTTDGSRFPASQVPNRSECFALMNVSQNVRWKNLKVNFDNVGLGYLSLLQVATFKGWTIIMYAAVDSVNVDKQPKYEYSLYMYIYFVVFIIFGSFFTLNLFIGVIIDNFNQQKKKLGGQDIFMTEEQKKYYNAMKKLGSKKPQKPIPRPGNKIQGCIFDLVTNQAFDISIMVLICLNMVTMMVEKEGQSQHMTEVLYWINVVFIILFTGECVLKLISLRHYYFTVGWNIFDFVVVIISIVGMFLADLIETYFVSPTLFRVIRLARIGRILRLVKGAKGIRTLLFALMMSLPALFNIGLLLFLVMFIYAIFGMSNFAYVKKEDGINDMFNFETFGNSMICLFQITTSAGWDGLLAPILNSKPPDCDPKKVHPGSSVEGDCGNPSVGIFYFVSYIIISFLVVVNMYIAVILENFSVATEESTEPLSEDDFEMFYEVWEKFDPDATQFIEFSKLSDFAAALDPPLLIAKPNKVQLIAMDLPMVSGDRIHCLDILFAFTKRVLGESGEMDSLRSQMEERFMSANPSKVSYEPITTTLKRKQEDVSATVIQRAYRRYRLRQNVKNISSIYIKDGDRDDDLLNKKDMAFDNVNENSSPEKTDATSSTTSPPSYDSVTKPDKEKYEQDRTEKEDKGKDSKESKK
Method Notes: in-vitro Nav 1.7 PX (IC50)
Format: cell-based
Measurement Context: in-vitro Nav 1.7 PX data
Reported Endpoint: IC50 (nM)

>>> reading("COc1cc(-c2ccc(F)c(C)c2)c(F)cc1-n1c(=O)ccc2cc(S(=O)(=O)Nc3cc(C)ncn3)ccc21")
34
>>> reading("COc1cc(Cl)c(-c2cccc(F)c2)cc1-n1c(=O)ccc2cc(S(=O)(=O)Nc3ccon3)ccc21 (atropisomer, axis not shown; (M)) [Example 609]")
10100
>>> reading("COc1cc(-c2ccc(Cl)cc2)c(F)cc1-n1c(=O)ccc2cc(S(=O)(=O)Nc3cccnn3)ccc21")
24
